System: Staphylococcus aureus
assay.summary: microbe, parasite or virus in culture
Format: functional
assay.conditions: ATCC 25923
Description: Antibacterial activity against methicillin-sensitive Staphylococcus aureus ATCC 25923 by CLSI agar microdilution method
Measured MIC, listed per entry for reference.
Please respond with the number in µg/mL and leave the unit unwritten.

Ask | Entry "CN[C@H](CC(C)C)C(=O)N[C@H]1C(=O)N[C@@H](CC(N)=O)C(=O)N[C@H]2C(=O)N[C@H]3C(=O)N[C@H](C(=O)N[C@@H](C(=O)O)c4cc(O)cc(O)c4-c4cc3ccc4O)[C@H](O[C@H]3C[C@](C)(N)[C@H](O)[C@H](C)O3)c3ccc(c(Cl)c3)Oc3cc2cc(c3O[C@@H]2O[C@H](CO)[C@@H](O)[C@H](O)[C@H]2O[C@H]2C[C@](C)(N)[C@H](O)[C@H](C)O2)Oc2ccc(cc2Cl)[C@H]1O" : reported MIC = ?
Reply | 0.25

Lab note: next compound to report on.
Ask | // lookup MIC for "CN[C@H](CC(C)C)C(=O)N[C@H]1C(=O)N[C@@H](CC(N)=O)C(=O)N[C@H]2C(=O)N[C@H]3C(=O)N[C@H](C(=O)N[C@@H](C(=O)O)c4cc(O)cc(O)c4-c4cc3ccc4O)[C@H](O[C@H]3C[C@](C)(N)[C@H](O)[C@H](C)O3)c3ccc(c(Cl)c3)Oc3cc2cc(c3O[C@@H]2O[C@H](CO)[C@@H](O)[C@H](O)[C@H]2O[C@H]2C[C@](C)(NCc3ccc(C(C)C)cc3)[C@H](O)[C@H](C)O2)Oc2ccc(cc2Cl)[C@H]1O"
Reply | 1

meta.source: ChEMBL document CHEMBL1909570
